test: acid dissociation constant (pKa) in water; details: water
Measure name: pKa
Give the value as a plain number.

Compound	pKa
CCCCCCCCCCCCCCCCCCN [octadecylamine]	10.7

Okay, now this compound:
Answer with reported pKa of CCCCCCCCCCCCCCCCCC(=O)O [stearic acid]
5

---

Catalogue of pKa of Bronsted base values
assay: acid dissociation constant (pKa) in water; details: in water
Please state the value as a number alone, without comment.

Molecule	pKa of Bronsted base
CCCCCCCCCCCCCCCCCCN.OCC(F)(F)C(F)(F)C(F)(F)C(F)(F)C(F)(F)C(F)(F)C(F)(F)F [Comparative ionic liquid 7, reference compound]	10.7
CCCCCCCCCCCCCCCCCCN.O=C(O)C(F)(F)C(F)(F)C(F)(F)C(F)(F)C(F)(F)C(F)(F)C(F)(F)F [Comparative ionic liquid 6, reference compound]	10.7
CCCCCCCCCCCCCCCC1CCCCN2CCCN=C12.O=S(=O)(O)C(F)(F)C(F)(F)C(F)(F)C(F)(F)C(F)(F)C(F)(F)C(F)(F)C(F)(F)F [Ionic liquid 11]	12.5

Consider the additional molecule presented here.
Please supply the value of reported pKa of Bronsted base for the item CCCCCCCCCCCCCCCCCCN.O=S(=O)(O)C(F)(F)C(F)(F)C(F)(F)C(F)(F)C(F)(F)C(F)(F)C(F)(F)C(F)(F)F [Ionic liquid 10]
10.7

---

experiment: TG/DTA thermal analysis; format: physicochemical; conditions: air, 30° C. to 600° C., heating rate 10° C./min
Measure name: Exothermic peak temperature in DTA measurement (°C)
Please state the figure in °C; there is no need to write the unit.

Some compounds with recorded Exothermic peak temperature in DTA measurement:
Compound	Unit label	Numeric result
CCCCCCCCCCCCCCCCCCC1CCCCN2CCCN=C12.O=S1(=O)NS(=O)(=O)C(F)(F)C(F)(F)C1(F)F (stereo not shown)	°C	474
CCCCCCCCCCCCCCCCCCN.O=S1(=O)NS(=O)(=O)C(F)(F)C(F)(F)C1(F)F	°C	417

Annotate the compound C1CCC2=NCCCN2CC1.O=S(=O)(O)C(F)(F)C(F)(F)C(F)(F)C(F)(F)C(F)(F)C(F)(F)C(F)(F)C(F)(F)F [Comparative ionic liquid 8, reference compound] with its measured Exothermic peak temperature in DTA measurement.
432

Look up and state reported Exothermic peak temperature in DTA measurement for C1CN=C2NCCCN2C1.O=S(=O)(O)C(F)(F)C(F)(F)C(F)(F)C(F)(F)C(F)(F)C(F)(F)C(F)(F)F [Comparative ionic liquid 9, TBD pentadecafluoro sulfonic acid salt, reference compound]
425

---

assay: acid dissociation constant (pKa) in water; details: in water
Measure name: pKa of Bronsted acid
Reply with the value as a number alone.

Molecule	Numeric result
CCCCCCCCCCCCCCCCCCN.O=S(=O)(O)C(F)(F)C(F)(F)C(F)(F)C(F)(F)C(F)(F)C(F)(F)C(F)(F)C(F)(F)F	−3.3
CCCCCCCCCCCCCCCCCCN.O=C(O)C(F)(F)F [Comparative ionic liquid 1, reference compound]	0.5
CCCCCCCCCCCCCCCCCCN.CS(=O)(=O)O	−2

In one line, give reported pKa of Bronsted acid of the entry CCCCCCCCCCCCCCCCCC(=O)O.CCCCCCCCCCCCCCCCCCN [Comparative ionic liquid 3, reference compound] .
5.0

Return the recorded pKa of Bronsted acid value; entry: CCCCCCCCCCCCCCCCCCN.O=S(=O)(O)O
−3

// fetch pKa of Bronsted acid given entry CCCCCCCCCCCCCCCC1CCCCN2CCCN=C12.O=S(=O)(O)C(F)(F)C(F)(F)C(F)(F)C(F)(F)C(F)(F)C(F)(F)C(F)(F)C(F)(F)F
−3.3
